- methodDescription: NCI Yeast Anticancer Drug Screen. Data for the mlh1 rad18 strain (AID 175)
- experimentalParameters: S. cerevisiae mlh1 rad18 strain growth inhibition; at 50.0 µM; active compounds read high
The panel holds about 79,000 compounds, 15% with a hit somewhere; the sample as a whole holds those more often.

- compound: "Nc1ncnc(N)c1NC(=O)CCCc1ccccc1"
  growth inhibition (%): 15.9
- compound: "COC1OCC(OS(C)(=O)=O)C(NC(C)=O)C1OS(C)(=O)=O (stereo not given)"
  growth inhibition (%): 2.25
- compound: "OCc1nc2ccccc2[nH]1"
  growth inhibition (%): 3.3
- compound: "COc1ccc2c(c1)CCCN1CCc3cc(OC)c(OC)cc3C21 (stereo not given)"
  growth inhibition (%): -17.7
- compound: "COC(=O)c1cccc(=O)o1"
  growth inhibition (%): 2.15
- compound: "Cc1ccc(-n2c(C)nc3c(c(C)c(C)n3-c3ccccc3)c2=N)cc1"
  growth inhibition (%): 6.65
- compound: "O=C1CCN2C(=O)CCN12"
  growth inhibition (%): 2.35
- compound: "CCCCCCCCCCCCSCCO"
  growth inhibition (%): 39
- compound: "CC(C)OC(=O)N[C@@H]1c2ccccc2CC[C@H]1I"
  growth inhibition (%): 3.55
- compound: "O=C(NCc1cccc2ccccc12)Nc1ccccc1Cl"
  growth inhibition (%): 30
- compound: "Clc1cc(/C=C/c2ccccc2)c2ccccc2n1"
  growth inhibition (%): 22.3
- compound: "Cn1c(=O)n2n(c1=O)C1C=CC2C2C=C(c3ccccc3)C21 (stereo not given)"
  growth inhibition (%): 0.3
- compound: "CC[O-].CC[O-].O=C([CH-]C(=O)c1ccccc1)CCCCCCC(=O)[CH-]C(=O)c1ccccc1.[Ti+4]"
  growth inhibition (%): -17.7
- compound: "CN=CN(C)c1c2ccccc2nc2ccccc12"
  growth inhibition (%): -1.25
- compound: "C1CSCCSCSCCS1"
  growth inhibition (%): 17.8
- compound: "O=NC1C(Cl)C2CC1C1COCC21 (stereo not given)"
  growth inhibition (%): -7.05
- compound: "CC(=O)C1C(=O)C(=O)N(c2ccccc2N2C(=O)C(=O)C(C(C)=O)C2=O)C1=O (stereo not given)"
  growth inhibition (%): 25.8
- compound: "O=C(Nc1ccc2ccccc2c1)C(F)(F)F"
  growth inhibition (%): -8.95
- compound: "CCOC(=O)c1c(C)c(C(C)=O)c2ccccn12"
  growth inhibition (%): -2.7
- compound: "CCc1nc(Nc2cccc(C)c2)c2cnn(-c3ccccc3)c2n1"
  growth inhibition (%): -13.8
- compound: "C[N+](C)(C)C(Cc1ccccc1)Cc1ccccc1"
  growth inhibition (%): 5.65
- compound: "O=[N+]([O-])c1ccc(/C=N\\N=C\\c2ccco2)cc1"
  growth inhibition (%): 4.95
- compound: "CC(C)(C)NC(=O)NCC1CCCC1NC(=O)NC(C)(C)C (stereo not given)"
  growth inhibition (%): -10.4
- compound: "O=c1oc2ccc3ccccc3c2c(-c2ccc(O)cc2)c1-c1ccccc1"
  growth inhibition (%): 98.7
- compound: "CC(=O)OCc1ccnc2ccc(OC(C)=O)cc12"
  growth inhibition (%): 2.75
- compound: "CC(CCl)NS(=O)(=O)c1ccccc1 (stereo not given)"
  growth inhibition (%): -8.05
- compound: "NC(=O)N/N=C\\CC(O)(C(F)(F)Cl)C(F)(F)Cl"
  growth inhibition (%): -3.1
- compound: "CC1(C)OCCS1"
  growth inhibition (%): 13.9
- compound: "CCCCNC1(N(C)C)N=C(N(C)C)N=C(N(C)C)O1 (stereo not given)"
  growth inhibition (%): -0.45
- compound: "CC1(c2ccc3cccc(F)c3c2)OC(=O)c2ccccc21 (stereo not given)"
  growth inhibition (%): -12.7
- compound: "CCOC(=O)C(C(=O)OCC)c1cc(-c2cc3ccccc3o2)oc(=O)c1C#N"
  growth inhibition (%): 30.1
- compound: "CC(C)N(C(=O)C12C3C4C5C3C1(C(=O)N(C(C)C)C(C)C)C5C42)C(C)C (stereo not given)"
  growth inhibition (%): 14.4
- compound: "O=c1cc(CNC2CC3CCC2C3)[nH]c(=O)[nH]1 (stereo not given)"
  growth inhibition (%): -0.2
- compound: "CCOc1nc(=O)n(CC(=O)c2ccc(Cl)s2)cc1F"
  growth inhibition (%): 19.6
- compound: "Cn1c2ccc(Br)cc2c2cc(Br)cc([N+](=O)[O-])c21"
  growth inhibition (%): 15.3
- compound: "CCC1CCCCC1O (stereo not given)"
  growth inhibition (%): 6.1
- compound: "N#CCC(=O)N/N=C\\C(O)C(O)C(O)C(O)CO (stereo not given)"
  growth inhibition (%): 11.1
- compound: "CC(=O)Oc1nnc(-c2ccccc2)c(-c2ccccc2)n1"
  growth inhibition (%): 17.3
- compound: "CCOc1ccc(NC(=S)NC=C(C#N)C#N)cc1"
  growth inhibition (%): -5.75
- compound: "Cc1c(C)c(O)c(C)c(C)c1O"
  growth inhibition (%): 11.4

---

- methodDescription: NCI Yeast Anticancer Drug Screen. Data for the mlh1 rad18 strain (AID 175)
- experimentalParameters: S. cerevisiae mlh1 rad18 strain growth inhibition; at 50.0 µM; active compounds read high
This is part of a sample that, as a whole, favours compounds with a hit. Of some 79,000 tested, about 15% had one in any assay. Calls of active or inactive are those of the source. No stated cut-off is given here; in the data, active means growth inhibition above about 70%; inactive means the rest.
Each record here notes measured growth inhibition.
measurementLabel: growth inhibition

- compound: "CC(C)(O)/C=C\\P(C)(=O)c1ccccc1 (stereo unspecified)"
  reading: "-31.4% (inactive)"
- compound: "Cc1c(Cl)cccc1NC(=O)Sc1ccc(C(C)(C)C)cc1"
  reading: "15.5% (inactive)"
- compound: "Nc1cc(C(=O)O)ccc1Cl"
  reading: "-5.4% (inactive)"
- compound: "CC(CN(C)C)C(/C=C/c1ccccc1)=N\\Nc1ccccc1 (stereo unspecified)"
  reading: "3.25% (inactive)"
- compound: "O=C(O)CCc1c(-c2ccccc2)c(-c2ccccc2)c2n1CCC2"
  reading: "48.9% (inactive)"
- compound: "CCCC1(C)OCC(C)(C)CO1"
  reading: "1.9% (inactive)"

---

- methodDescription: NCI Yeast Anticancer Drug Screen. Data for the cln2 rad14 strain (AID 165);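 note: 0% = growth equal to vehicle treated cultures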
- experimentalParameters: S. cerevisiae cln2 rad14 strain, at 50.0 µM, active compounds read high
- Protocol: Growth inhibition of yeast strains with defined genetic alterations is measured as a screen for potential anti-cancer activity. Selected strains with alterations in DNA damage repair or cell cycle control were exposed to compounds and growth inhibition was measured relative to vehicle treated controls. The strain used in this assay is cln2 rad14
The panel holds about 79,000 compounds, 15% with a hit somewhere; the sample as a whole holds those more often.
Each record here notes measured growth inhibition.

- molecule: "CC1(C(=O)O)CCCC2(C)c3ccc(O)cc3CCC12 (stereo unspecified)"
  growth inhibition [%]: -3
- molecule: "NCCCCCC(CCN)SCC1OC(n2cnc3c(N)ncnc32)C(O)C1O (stereo unspecified)"
  growth inhibition [%]: -7.45
- molecule: "Cc1nc(Cl)c(Cl)c(Cl)n1"
  growth inhibition [%]: 5.55
- molecule: "CN(C)Cc1ccc2ccccc2c1"
  growth inhibition [%]: -39.1
- molecule: "COC(=O)Cc1nn2c(nc1=O)sc1ccc3ccccc3c12"
  growth inhibition [%]: 1.25
- molecule: "CCOC(=O)Nc1nc2ccccc2n1CN1CCCCC1"
  growth inhibition [%]: 16.4
- molecule: "CC(C)c1ccc(N=Nc2ccc(N(C)C)cc2)cc1"
  growth inhibition [%]: -17.9
- molecule: "CSC1NC(c2ccccc2)=C(C#N)C(=O)N1C1OCC(OC(C)=O)C(OC(C)=O)C1OC(C)=O (stereo unspecified)"
  growth inhibition [%]: 4.75
- molecule: "Cc1cc(=O)cc(-c2ccccc2)[nH]1"
  growth inhibition [%]: -37.3
- molecule: "CCOC(=O)/C(C#N)=C/Nc1[nH]c(=O)c(C#N)c(-c2ccc(Cl)cc2)c1SC"
  growth inhibition [%]: -9.2
- molecule: "CCOc1nc(=O)n(CC(=O)c2ccc(Cl)s2)cc1F"
  growth inhibition [%]: -7.8
- molecule: "CN(NC(=O)c1ccco1)C1=NCCCCN1"
  growth inhibition [%]: -16.6
- molecule: "CN(C)C=NCC(O)c1ccccc1 (stereo unspecified)"
  growth inhibition [%]: -3
- molecule: "Nc1cc(Cl)c(N(CCO)C2=NCCN2)c(Cl)c1"
  growth inhibition [%]: -12.2
- molecule: "Cc1ccc(S(=O)(=O)N/N=C/C(O)C(O)C(O)C(O)CO)cc1 (stereo unspecified)"
  growth inhibition [%]: -34.1
- molecule: "CC1(C)N(/N=C/c2ccccc2)C(c2ccccc2)C(c2ccccc2)N1/N=C/c1ccccc1 (stereo unspecified)"
  growth inhibition [%]: -11.3
- molecule: "CCOC(=O)C(C(=O)OCC)C(c1ccccc1)c1ccccc1OC (stereo unspecified)"
  growth inhibition [%]: 17
- molecule: "CC(=O)OCC1OC(Nc2[nH]c(=O)n(C)c(=O)c2C=O)C(OC(C)=O)C(OC(C)=O)C1OC(C)=O (stereo unspecified)"
  growth inhibition [%]: 9.15
- molecule: "COC(=O)Nc1nc2ccccc2n1-c1ccccc1"
  growth inhibition [%]: 14.2
- molecule: "C=C1C(=O)O[C@@H]2[C@H]3[C@H](C)C(=O)C=C[C@]3(C)CC[C@@H]12"
  growth inhibition [%]: 13.4
- molecule: "Clc1ccc(-c2nnc(-c3ccc(Cl)c(Cl)c3)o2)cc1Cl"
  growth inhibition [%]: -30.5
- molecule: "BrCCCCCOc1ccc(-c2c3ccccc3c(-c3ccc(OCCCCCBr)cc3)c3ccccc23)cc1"
  growth inhibition [%]: 0.05
- molecule: "CCCCn1c(CCC)nc([N+](=O)[O-])c1Sc1ncn[nH]1"
  growth inhibition [%]: -1
- molecule: "COc1ccc(C2(C)OCCC(C)O2)cc1 (stereo unspecified)"
  growth inhibition [%]: -24.1
- molecule: "Cn1c(=O)c2c(ncn2CCNC(c2ccccc2)c2ccc(Br)cc2)n(C)c1=O (stereo unspecified)"
  growth inhibition [%]: -35.3
- molecule: "OC1(CCC2OCCO2)c2ccccc2-c2ccccc21"
  growth inhibition [%]: 25.4
- molecule: "O=C1c2scnc2-c2nccc3c2c1nc1ccccc13"
  growth inhibition [%]: 53.2
- molecule: "O=C(c1ccccc1C(=O)N1CCCO1)N1CCCO1"
  growth inhibition [%]: -15.8
- molecule: "Cc1ccccc1NC(=O)Oc1ccc2c(C)cc(=O)oc2c1"
  growth inhibition [%]: -17.2
- molecule: "CC(C)CCCC(C)CCCl (stereo unspecified)"
  growth inhibition [%]: 1.95
- molecule: "CSc1nc(N)c(C(N)=O)cc1C#N"
  growth inhibition [%]: -32.8
- molecule: "COc1c(OC)c(C(C)C)c2c(c1C(=O)O)C(=O)OC2=O"
  growth inhibition [%]: -14.9
- molecule: "CN(C)CCCOC(=O)C(O)(Cc1ccccc1)C1CC1 (stereo unspecified)"
  growth inhibition [%]: 5.35
- molecule: "CN1CCC2(CC1)C(=NC1CCCCC1)NC(=O)N2c1ccccc1"
  growth inhibition [%]: 1.1
- molecule: "CCOC(=O)N1CCNCCN(C(=O)OCC)CCNCC1"
  growth inhibition [%]: 0.7
- molecule: "Nc1nc(N)nc(-c2ccccc2NC(=O)c2ccccc2N)n1"
  growth inhibition [%]: 8.5
- molecule: "COc1ccc(-c2cc(-c3ccco3)c(C#N)c(=S)n2C2OC(COC(C)=O)C(OC(C)=O)C(OC(C)=O)C2OC(C)=O)cc1 (stereo unspecified)"
  growth inhibition [%]: -2.75
- molecule: "Cc1ccc([N+](=O)[O-])cc1NC(=O)Cc1ccccc1"
  growth inhibition [%]: -8
- molecule: "CC(C)=CCc1ccc2c(c1)CCCN2C"
  growth inhibition [%]: -47
- molecule: "O=C(O)CNC(CO)(CO)CO"
  growth inhibition [%]: -19.8
- molecule: "CSc1nc(NC2OCC(OC(C)=O)C(OC(C)=O)C2OC(C)=O)c(N=CC=Nc2c(NC3OCC(OC(C)=O)C(OC(C)=O)C3OC(C)=O)nc(SC)n(C)c2=O)c(=O)n1C (stereo unspecified)"
  growth inhibition [%]: -16.3
